system: TRPC4 beta (transient receptor potential cation channel C4), mouse; assay: activators of mouse TRPC4 channel, confirmation, cell-based, Fluo4 calcium, HEK293 TRPC4beta/mu-opioid, duplicates, 10 µM (AID 2426); settings: Fluo4 calcium fluorescence, at 10 µM
Active and inactive are the calls of the source.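 How the source made its calls: active means fluorescence ratio normalized to control raised more than 50% in primary screen plus both repeat runs; inactive means the rest.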
Classes to choose from: True for active, False for inactive

Exercise: What is the recorded call for this compound in the test? Cc1ccc(-c2cc(-c3ccccc3)cc(-c3ccccc3)[n+]2-c2ccccc2)cc1
Key: False

Exercise: What is the recorded call for this compound in the test? Cc1cc(OC(C)C(=O)NCc2ccncc2)c2c3c(c(=O)oc2c1)CCCC3 (centres undefined)
Key: False

Exercise: What is the recorded call for this compound in the test? CCOC(=O)C1(c2ccccc2)CCN(CCC(=O)Nc2ccccc2OC)CC1
Key: True

Exercise: What is the recorded call for this compound in the test? COc1ccc2c(c1O)[C@]13CCN(C)[C@H](C2)[C@@H]1CCC(=O)C3
Key: True
